Answer each item with its documented log10(IC50).
measured on: UniProt:P25105
Sequence (P25105 whole entry): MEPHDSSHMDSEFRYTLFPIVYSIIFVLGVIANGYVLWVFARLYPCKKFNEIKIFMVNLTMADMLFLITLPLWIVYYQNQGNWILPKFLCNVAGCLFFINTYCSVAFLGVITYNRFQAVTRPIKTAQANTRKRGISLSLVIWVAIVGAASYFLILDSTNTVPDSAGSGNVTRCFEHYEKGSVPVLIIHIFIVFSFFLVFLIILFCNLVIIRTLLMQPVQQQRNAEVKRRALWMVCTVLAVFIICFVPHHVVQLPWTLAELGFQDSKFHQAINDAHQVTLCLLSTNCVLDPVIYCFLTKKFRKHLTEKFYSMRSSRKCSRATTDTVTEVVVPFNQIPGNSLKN
Values are log10 of IC50 in nM.

Past entries and their recorded results:
compound=CCCOc1cc([C@H]2CC[C@H](c3cc(OC)c(OC)c(OC)c3)O2)cc(N(O)C(=O)NCC)c1OCCC measured_number=1.77
compound=CCCOc1cc([C@H]2CC[C@H](c3cc(OC)c(OC)c(OC)c3)O2)cc(N(CC)C(=O)N(C)O)c1OCCC measured_number=1.83
compound="CCCOc1c(NC(=O)N(O)C(C)C)cc(C2CCC(c3cc(OC)c(OC)c(OC)c3)O2)cc1OC (trans isomer)" measured_number=1.76
compound="CCCOc1c(NC(=O)N(O)Cc2ccccc2)cc(C2CCC(c3cc(OC)c(OC)c(OC)c3)O2)cc1OC (cis isomer)" measured_number=2.77
compound="CCCOc1c(NC(=O)N(C)O)cc(C2CCC(c3cc(OC)c(OC)c(OC)c3)O2)cc1OC (cis isomer)" measured_number=2.71

// next item, log10(IC50) requested
What log10(IC50) value was documented for this compound, CCCCN(O)C(=O)Nc1cc(C2CCC(c3cc(OC)c(OC)c(OC)c3)O2)cc(OC)c1OCCC (cis isomer) ?
3.12

###

measured on: Polyunsaturated fatty acid 5-lipoxygenase (Rattus norvegicus)
assay explanation: In vitro inhibition of 5-lipoxygenase in RBL-2H3 (Rat basophilic leukemia) cells.
Type: functional, cell-based
outcome measure: pIC50
Answers are plain numbers, as −log10 of the molar value.

molecule="CCCOc1c(NC(=O)N(O)Cc2ccccc2)cc(C2CCC(c3cc(OC)c(OC)c(OC)c3)O2)cc1OC (cis isomer)" outcome_measure=pIC50 measured_number=5.10
molecule="CCCCN(O)C(=O)Nc1cc(C2CCC(c3cc(OC)c(OC)c(OC)c3)O2)cc(OC)c1OCCC (stereo in doubt)" outcome_measure=pIC50 measured_number=6.38
molecule="CCCOc1c(NC(=O)N(O)CCC)cc(C2CCC(c3cc(OC)c(OC)c(OC)c3)O2)cc1OC (stereo in doubt)" outcome_measure=pIC50 measured_number=5.00

// next item, pIC50 requested
Hello, I am looking for reported pIC50 with Polyunsaturated fatty acid 5-lipoxygenase (Rattus norvegicus) for CCCOc1c(NC(=O)N(O)C(C)(C)C)cc(C2CCC(c3cc(OC)c(OC)c(OC)c3)O2)cc1OC (trans isomer) . Could you help?
5.54

###

measured on: Polyunsaturated fatty acid 5-lipoxygenase (Rattus norvegicus)
Sequence (P12527 whole entry): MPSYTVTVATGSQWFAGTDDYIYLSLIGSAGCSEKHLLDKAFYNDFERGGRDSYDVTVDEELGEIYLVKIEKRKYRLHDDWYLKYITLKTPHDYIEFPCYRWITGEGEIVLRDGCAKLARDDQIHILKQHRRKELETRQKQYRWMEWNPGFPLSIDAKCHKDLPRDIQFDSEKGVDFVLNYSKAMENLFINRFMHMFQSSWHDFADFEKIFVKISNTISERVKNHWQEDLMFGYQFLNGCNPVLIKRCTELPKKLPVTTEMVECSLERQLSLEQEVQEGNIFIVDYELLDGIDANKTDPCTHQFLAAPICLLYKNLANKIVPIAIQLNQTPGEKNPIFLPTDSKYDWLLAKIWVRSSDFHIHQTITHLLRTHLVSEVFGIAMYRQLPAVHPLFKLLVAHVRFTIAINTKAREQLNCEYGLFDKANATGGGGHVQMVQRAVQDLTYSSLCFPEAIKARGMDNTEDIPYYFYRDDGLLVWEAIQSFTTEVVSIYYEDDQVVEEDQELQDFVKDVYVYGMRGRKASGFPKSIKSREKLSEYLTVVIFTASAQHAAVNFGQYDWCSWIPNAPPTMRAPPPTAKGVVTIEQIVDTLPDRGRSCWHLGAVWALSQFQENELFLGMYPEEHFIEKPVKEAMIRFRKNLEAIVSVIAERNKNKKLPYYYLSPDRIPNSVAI
assay explanation: In vitro inhibition of 5-lipoxygenase in RBL-2H3 (Rat basophilic leukemia) cells.
Type: functional, cell-based
outcome measure: log10 IC50 (log10 of the value in nM)
Values are log10 of IC50 in nM.

Past entries and their recorded results:
molecule="CCCOc1c(NC(=O)N(O)C(C)C)cc(C2CCC(c3cc(OC)c(OC)c(OC)c3)O2)cc1OC (stereo in doubt)" measured_number=3.45
molecule="CCCOc1c(NC(=O)N(O)CC)cc(C2CCC(c3cc(OC)c(OC)c(OC)c3)O2)cc1OC (trans isomer)" measured_number=2.18
molecule="CCCOc1c(NC(=O)N(O)C(C)C)cc(C2CCC(c3cc(OC)c(OC)c(OC)c3)O2)cc1OC (trans isomer)" measured_number=3.48
molecule="CCCCN(O)C(=O)Nc1cc(C2CCC(c3cc(OC)c(OC)c(OC)c3)O2)cc(OC)c1OCCC (cis isomer)" measured_number=2.70
molecule=CCCNC(=O)N(O)c1cc([C@H]2CC[C@H](c3cc(OC)c(OC)c(OC)c3)O2)cc(OCCC)c1OCCC measured_number=3.48

// for each molecule in input: emit log10 IC50
1. CCCOc1c(NC(=O)N(O)C(C)CC)cc(C2CCC(c3cc(OC)c(OC)c(OC)c3)O2)cc1OC (trans isomer)
2. CCCOc1c(NC(=O)N(O)Cc2ccccc2)cc(C2CCC(c3cc(OC)c(OC)c(OC)c3)O2)cc1OC (trans isomer)
3. CCCOc1c(NC(=O)N(C)O)cc(C2CCC(c3cc(OC)c(OC)c(OC)c3)O2)cc1OC (trans isomer)
4. CCCOc1c(NC(=O)N(O)CC)cc(C2CCC(c3cc(OC)c(OC)c(OC)c3)O2)cc1OC (stereo in doubt)

1. 2.78
2. 3.35
3. 2.80
4. 3.48
